Overview of recorded self-aminoacylation for various sequences
Tested on: biotinyl-Met-oxazolone
Test: self-aminoacylation, catalytic enhancement (BMO) (fold over background); higher = more active; k-Seq, kA / k0A0; sequences stand for … in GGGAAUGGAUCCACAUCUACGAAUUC…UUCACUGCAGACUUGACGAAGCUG
This sample holds only a part of the variants without activity.
# output: bare number, no unit

Use these answered entries as a reference point.
# primarySequence, self-aminoacylation
data = [
    ("CCACACUUCAACCAAUCGGUG [Fam1B.1 aminoacylation ribozyme variant]", 3.66),
    ("AUUCCCCUAGGUCACCGGGUG [Fam2.2 aminoacylation ribozyme variant]", 20.3),
    ("CCACAAUUCAAGCAAUCGUUC [Fam1B.1 aminoacylation ribozyme variant]", 0.815),
    ("AUUACCCUGGUCAUCGCUUGA [Fam2.1 aminoacylation ribozyme variant]", 2.25),
    ("CCACACUUCAAGGAAUCGGCC [Fam1B.1 aminoacylation ribozyme variant]", 2.08),
]

Asked: What does the record list as self-aminoacylation for AUUCAACUAGGUCAUCGGUUG [Fam2.2 aminoacylation ribozyme variant] ?
Given back: 0.933

Asked: Entry under review: ACACACUUCAAGCAAUCGCUC [Fam1B.1 aminoacylation ribozyme variant] . Reported self-aminoacylation?
Given back: 1.63

Asked: // self-aminoacylation lookup, key: UAGUCUGCUAAUAGUCGCAAG [Fam3.1 aminoacylation ribozyme variant]
Given back: 2.17
